target: Nuclear receptor coactivator 1 (Homo sapiens) (UniProt Q15788); test: SRC1 coactivator transcriptional activity inhibitors, confirmation, cell-based, luminescence, quadruplicate (AID 588820); conditions: HEK293 GAL4-SRC1 luciferase reporter, at 3.6 µM, stronger effect = higher value;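 further: 0% = DMSO wells and 100% = gossypol 36 µM treated wells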
Sequence (Q15788 whole entry, looked up, the tested form may be a part): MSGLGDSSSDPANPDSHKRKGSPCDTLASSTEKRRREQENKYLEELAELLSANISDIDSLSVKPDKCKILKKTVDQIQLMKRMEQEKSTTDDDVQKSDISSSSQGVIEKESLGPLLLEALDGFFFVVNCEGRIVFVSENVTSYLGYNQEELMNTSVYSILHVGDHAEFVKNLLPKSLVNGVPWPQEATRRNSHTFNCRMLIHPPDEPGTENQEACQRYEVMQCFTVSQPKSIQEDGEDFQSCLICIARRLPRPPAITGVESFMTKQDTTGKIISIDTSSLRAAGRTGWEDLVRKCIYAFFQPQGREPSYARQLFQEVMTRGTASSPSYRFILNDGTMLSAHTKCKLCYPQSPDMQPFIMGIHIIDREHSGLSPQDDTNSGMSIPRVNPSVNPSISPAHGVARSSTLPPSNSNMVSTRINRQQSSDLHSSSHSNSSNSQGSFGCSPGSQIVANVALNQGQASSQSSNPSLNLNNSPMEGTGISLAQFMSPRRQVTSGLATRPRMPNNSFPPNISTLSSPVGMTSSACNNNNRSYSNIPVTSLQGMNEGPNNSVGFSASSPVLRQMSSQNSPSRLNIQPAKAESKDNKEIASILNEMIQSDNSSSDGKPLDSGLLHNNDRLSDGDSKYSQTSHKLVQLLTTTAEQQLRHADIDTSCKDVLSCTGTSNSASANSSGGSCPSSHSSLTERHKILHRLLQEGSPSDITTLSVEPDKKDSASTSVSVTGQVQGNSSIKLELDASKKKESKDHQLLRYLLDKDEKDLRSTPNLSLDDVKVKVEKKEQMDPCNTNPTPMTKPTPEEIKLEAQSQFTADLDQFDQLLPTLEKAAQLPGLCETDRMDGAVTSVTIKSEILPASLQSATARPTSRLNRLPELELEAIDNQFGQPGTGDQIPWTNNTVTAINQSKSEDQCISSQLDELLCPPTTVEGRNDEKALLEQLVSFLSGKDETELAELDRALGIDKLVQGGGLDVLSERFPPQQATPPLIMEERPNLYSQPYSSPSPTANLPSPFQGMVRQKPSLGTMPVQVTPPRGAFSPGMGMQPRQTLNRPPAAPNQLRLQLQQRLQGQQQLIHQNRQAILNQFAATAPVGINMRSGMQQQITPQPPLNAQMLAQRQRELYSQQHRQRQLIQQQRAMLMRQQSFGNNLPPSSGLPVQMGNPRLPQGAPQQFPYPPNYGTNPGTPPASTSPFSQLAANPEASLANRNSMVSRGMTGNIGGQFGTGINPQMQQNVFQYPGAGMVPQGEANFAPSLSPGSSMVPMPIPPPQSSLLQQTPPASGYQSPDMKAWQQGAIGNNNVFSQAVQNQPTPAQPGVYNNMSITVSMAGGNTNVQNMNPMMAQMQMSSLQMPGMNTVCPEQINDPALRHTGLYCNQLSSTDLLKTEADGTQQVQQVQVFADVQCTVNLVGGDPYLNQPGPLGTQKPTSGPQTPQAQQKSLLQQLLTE
The source made the active and inactive calls.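 How the source made its calls: active means mean inhibition above 46.68%, the untreated control wells mean plus 3 SD; inactive means the rest.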
PROPERTY_MEASURED: inhibition

// worked examples, inhibition included
COMPOUND: CCN1CCN(c2ccc(Nc3ccnc4ccccc34)cc2)CC1
RESULT: 40.1% (inactive)
//
COMPOUND: CN(C)CCNc1ccc2nnn3c4ccc(O)cc4c(=O)c1c23
RESULT: 0.55% (inactive)
//
COMPOUND: CC(C)(C)c1ccc(CC(=O)N2CCC2(C)C(=O)Nc2ccc(F)cc2F)cc1 (stereo not drawn)
RESULT: 1.73% (inactive)

Which measured inhibition value corresponds to `COc1ccc(-c2c[n+]3c(n2-c2ccccc2)SCC3)cc1` ?
11.1% (inactive)

Would you kindly repeat that for `COc1ccc(-c2cc(=O)oc3c(C)c(O)c(CN(C)C)cc23)cc1` ?
17.5% (inactive)

Would you kindly repeat that for `c1ccc(-c2nn(-c3ccccc3)[n+](-c3ccccc3)n2)cc1` ?
-0.24% (inactive)

Would you kindly repeat that for `O=c1[nH]cnc2sc3c(c12)CCCCC3` ?
-0.67% (inactive)

Would you kindly repeat that for `COc1ccc(Cc2nnc(NC(=O)c3cc(OC)c(OC)c(OC)c3)s2)cc1OC` ?
-22.8% (inactive)

###

target: Peroxisome proliferator-activated receptor gamma (Homo sapiens); assay: agonists of PPARgamma SRC-2 coactivator recruitment, confirmation, biochemical, HTS (AID 1297); conditions: biochemical SRC-2 recruitment by PPARgamma; at 8 µM;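 further: 0% = vehicle alone and 100% = reference agonist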
Some of the results follow. Calls of active or inactive are those of the source. Cut-off read from the data, not from the text of the source: active = activation above about 22%; inactive = the rest.
// one of 1 (yes) (active), 0 (no) (inactive), no free text

Before answering, review these 4 worked examples.
COMPOUND: COC(=O)c1[nH]c2ccc(Br)cc2c1NC(=O)Oc1ccccc1
GROUP: 0 (no)
--
COMPOUND: Cn1c(-c2sc3cc(C(F)(F)F)cnc3c2-c2ccccc2)n[nH]c1=S
GROUP: 1 (yes)
--
COMPOUND: CCN(/N=C/c1ccc(N(C)C)cc1)c1nc2ccccc2[nH]1
GROUP: 0 (no)
--
COMPOUND: Cn1c(=O)cc(SCC(=O)N2CCN(C(=O)c3ccco3)CC2)c2ccccc21
GROUP: 1 (yes)

Test call, this compound: COc1ccc(/C(O)=C2/C(=O)C(=O)N(c3nc(C)c(C)s3)C2c2ccco2)cc1 (stereo not given)
1 (yes)

###

target: Steroidogenic factor 1 (Homo sapiens) (UniProt Q13285); assay: SF1 (NR5A1) inverse agonists, counter-screen for LRH-1 inverse agonist project, cell-based, luminescence, high throughput (AID 651614); conditions: cell-based SF1 luciferase reporter, at 3.6 µM;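 further: cells cotransfected with StAR promoter reporter and SF1 expression vector; 0% = vehicle on cells with receptor and 100% = vehicle on cells lacking receptor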
Sequence (Q13285 whole entry, looked up): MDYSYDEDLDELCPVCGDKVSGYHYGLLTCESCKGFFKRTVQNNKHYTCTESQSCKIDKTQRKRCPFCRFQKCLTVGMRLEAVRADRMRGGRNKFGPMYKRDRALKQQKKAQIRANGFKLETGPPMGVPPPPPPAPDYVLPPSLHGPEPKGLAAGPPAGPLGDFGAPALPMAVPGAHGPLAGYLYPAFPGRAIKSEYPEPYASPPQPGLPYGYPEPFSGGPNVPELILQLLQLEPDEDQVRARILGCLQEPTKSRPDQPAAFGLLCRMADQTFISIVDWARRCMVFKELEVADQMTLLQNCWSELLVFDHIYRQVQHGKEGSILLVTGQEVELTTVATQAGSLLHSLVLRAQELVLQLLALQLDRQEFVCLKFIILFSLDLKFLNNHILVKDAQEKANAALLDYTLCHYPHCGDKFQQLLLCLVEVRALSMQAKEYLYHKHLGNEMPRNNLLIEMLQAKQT
Calls of active or inactive are those of the source. Rule as the data show it: active = inhibition above about 44%; inactive = the rest.
// one of active, inactive, no free text

Test call, this compound: OC1(c2ccc(OC(F)F)cc2)CSC(=Nc2cccnc2)N1C1CC1 (stereo not given)
active

###

molecular target: Nuclear receptor subfamily 5 group A member 2 (Homo sapiens); assay: LRH-1 (NR5A2) inverse agonists, retest, confirmation, cell-based, luminescence (AID 651613); details: cell-based LRH-1 luciferase reporter, inverse agonism; at 3.6 µM; stronger effect = higher value;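 further: HEK293T cells co-transfected with LRH-1 and StAR promoter luciferase reporter; 0% = vehicle wells and 100% = parental cells lacking receptor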
Recorded inhibition values for a group of compounds are listed next.
Express your answer in %, writing the number without its unit.

CHEMICAL_SMILES: O=C1c2cc(F)ccc2-n2c1nc1ccccc1c2=O
READOUT_UNITS: %
inhibition: 72.4

Which measured inhibition value corresponds to `O=C(Nc1ccc2oc(-c3cccnc3)nc2c1)c1ccc([N+](=O)[O-])o1` ?
58.1

Would you kindly repeat that for `NC(=Nc1nc(-c2ccccn2)cc2ccccc12)c1ccccn1` ?
107

Would you kindly repeat that for `COc1cc(/C=N/n2nnnc2N)ccc1OCc1c(C)no[n+]1[O-]` ?
54.4

###

tested on: transactivating tegument protein VP16 (Human herpesvirus 1); experiment: VP16 transactivation reporter inhibitors, counter-screen for SRC2 inhibitor project, cell-based, luminescence, single concentration (AID 652007); details: cell-based VP16 transactivation luciferase reporter, at 8.9 µM, stronger effect = higher value
Active and inactive are the calls of the source. No stated cut-off is given here; in the data, active means inhibition above about 36%; inactive means the rest.
PROPERTY_MEASURED: inhibition

// worked examples, inhibition included
COMPOUND: Cc1ccccc1Cn1c(C)nc2ccccc21
TARGET_OR_SYSTEM: transactivating tegument protein VP16 (Human herpesvirus 1)
PROPERTY_MEASURED: inhibition
RESULT: 20% (inactive)
--
COMPOUND: Cc1ccc(NCC(=O)Nc2cccc(F)c2)cc1S(=O)(=O)N1CCCCCC1
TARGET_OR_SYSTEM: transactivating tegument protein VP16 (Human herpesvirus 1)
PROPERTY_MEASURED: inhibition
RESULT: 15.9% (inactive)
--
COMPOUND: O=C(O)CCSc1nc2ccccc2s1
TARGET_OR_SYSTEM: transactivating tegument protein VP16 (Human herpesvirus 1)
PROPERTY_MEASURED: inhibition
RESULT: 40.8% (active)

Which measured inhibition value corresponds to `CN(c1ccc2nc3ccccc3c(=O)n2n1)C1CCCCC1` ?
50.9% (active)

Would you kindly repeat that for `COc1cc(SC)ccc1C(=O)Nc1ncc(C)s1` ?
10.3% (inactive)

Would you kindly repeat that for `O=C(CSc1ncccc1C(=O)O)Nc1ccc2c(c1)OCCO2` ?
-2.25% (inactive)

Would you kindly repeat that for `CNc1ccc(N=Nc2cccc3ncccc23)cc1` ?
-76% (inactive)

Would you kindly repeat that for `CCOC(=O)C1(CC2CC2)CCN(Cc2cnc(-c3ccccc3C)nc2)CC1` ?
3.57% (inactive)

Would you kindly repeat that for `CNc1ccc2ncc(-c3cccc(C(=O)N(C)C)c3)n2n1` ?
-12.3% (inactive)

Would you kindly repeat that for `CCOc1ccc(NS(=O)(=O)c2ccc(C(=O)NC3CCN(Cc4ccccc4)CC3)cc2)cc1` ?
-3.23% (inactive)

Would you kindly repeat that for `Cc1cc(N2CCOCC2)c2c(N)cc(C)c(C)c2n1` ?
-7.44% (inactive)

Would you kindly repeat that for `O=S(=O)(c1ccc(NC(=S)NCc2cccnc2)cc1)N1CCCCC1` ?
12.3% (inactive)

Would you kindly repeat that for CC(NC(=O)CCc1nnc(-c2ccc(-c3ccccc3)cc2)o1)c1nc2ccccc2[nH]1 (stereo not drawn) ?
15.2% (inactive)

Would you kindly repeat that for `COc1cc(Nc2nc(-c3ccccc3)c3cc(C)ccc3n2)cc(OC)c1OC` ?
6.86% (inactive)

Would you kindly repeat that for `CN(C)c1ccc(/C=C2\SC(=O)N(CCc3nnc(N)s3)C2=O)cc1` ?
-23.4% (inactive)

Would you kindly repeat that for `Cc1ccc2nc(-c3ccc(Br)cc3)cn2c1` ?
9.32% (inactive)

Would you kindly repeat that for `CCc1ccc(C=C2SC(=S)N(CCCC(=O)Nc3ccc(C(=O)O)cc3)C2=O)cc1` ?
-9.93% (inactive)

Would you kindly repeat that for `C=CCOc1ccccc1CN1CCC(Cc2ccccc2)CC1` ?
8.57% (inactive)

Would you kindly repeat that for CC1(Cc2ccc(F)cc2)C(=O)Nc2ccc(-c3cccnc3)cc21 (stereo not drawn) ?
10.2% (inactive)

###

target: Nuclear receptor subfamily 5 group A member 2 (Homo sapiens) (UniProt O00482); test: LRH-1 (NR5A2) inverse agonists, retest, confirmation, cell-based, luminescence (AID 651613); details: cell-based LRH-1 luciferase reporter, inverse agonism; at 3.6 µM; stronger effect = higher value;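 further: HEK293T cells co-transfected with LRH-1 and StAR promoter luciferase reporter; 0% = vehicle wells and 100% = parental cells lacking receptor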
Sequence (O00482 whole entry, looked up): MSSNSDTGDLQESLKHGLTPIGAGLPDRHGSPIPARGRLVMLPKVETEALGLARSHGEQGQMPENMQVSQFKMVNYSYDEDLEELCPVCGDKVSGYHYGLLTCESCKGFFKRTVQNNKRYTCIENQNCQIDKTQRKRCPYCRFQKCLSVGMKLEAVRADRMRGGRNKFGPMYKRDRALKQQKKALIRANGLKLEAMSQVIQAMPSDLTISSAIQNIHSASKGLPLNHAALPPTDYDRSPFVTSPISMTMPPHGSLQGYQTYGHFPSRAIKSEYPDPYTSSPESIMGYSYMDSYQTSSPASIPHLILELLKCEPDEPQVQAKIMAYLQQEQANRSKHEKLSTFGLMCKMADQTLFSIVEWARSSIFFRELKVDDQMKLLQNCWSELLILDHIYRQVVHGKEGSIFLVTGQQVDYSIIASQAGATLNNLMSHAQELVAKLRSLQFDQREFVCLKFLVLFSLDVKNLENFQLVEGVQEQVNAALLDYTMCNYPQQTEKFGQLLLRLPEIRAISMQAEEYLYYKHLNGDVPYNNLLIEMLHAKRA
PROPERTY_MEASURED: inhibition (%)
Express your answer in %, writing the number without its unit.

// worked examples, inhibition included
MOLECULE: NS(=O)(=O)c1ccc(NC(=O)/C=C/c2ccc3c(c2)OCO3)cc1
PROPERTY_MEASURED: inhibition
RESULT_NUMBER: 61.7

MOLECULE: CC(=NNC(=S)Nc1ccccc1Cl)c1ccccn1
PROPERTY_MEASURED: inhibition
RESULT_NUMBER: 106

MOLECULE: Cc1ccc(NNC(N)=S)cc1Cl
PROPERTY_MEASURED: inhibition
RESULT_NUMBER: 53.4

MOLECULE: O=C(Nc1ccc(N2CCN(C(=O)c3ccco3)CC2)cc1)c1ccc2c(c1)OCO2
PROPERTY_MEASURED: inhibition
RESULT_NUMBER: 48.3

Record lookup: for Nuclear receptor subfamily 5 group A member 2 (Homo sapiens) (UniProt O00482), what inhibition belongs to `COc1ccc(Oc2ccc(NC(=O)c3ccccc3C)cc2)cc1` ?
38.8

Would you kindly repeat that for CC(=O)NC(c1ccc(Cl)cc1)c1ccc2cccnc2c1O (stereo unspecified) ?
104

Would you kindly repeat that for `Cc1cc(/C=N/n2cnnc2)c(C)n1-c1ccc(OCc2ccc(Cl)cc2Cl)cc1` ?
67

Would you kindly repeat that for `COc1ccc(NS(=O)(=O)c2ccc(-c3coc(C)n3)cc2)cc1OC` ?
65.6

Would you kindly repeat that for `CC1=[N+](C)c2c(ccc3cccnc23)C1(C)C` ?
38.6

###

molecular target: Nuclear receptor coactivator 1 (Homo sapiens); assay: SRC1 coactivator transcriptional activity inhibitors, confirmation, cell-based, luminescence, quadruplicate (AID 588820); conditions: HEK293 GAL4-SRC1 luciferase reporter, at 3.6 µM;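 further: 0% = DMSO wells and 100% = gossypol 36 µM treated wells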
Calls of active or inactive are those of the source.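 The calls were made as follows: active = mean inhibition above 46.68%, the untreated control wells mean plus 3 SD; inactive = the rest.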
// one of true (1) (active), false (0) (inactive), no free text

Test call, this molecule: `COc1ccccc1NS(=O)(=O)c1cccc(NC(=O)c2cncc(Br)c2)c1`
false (0)

Would you kindly repeat that for `CCOC(=O)N1CCC(N(CCN(C)C)C(=S)Nc2ccccc2OCC)CC1` ?
false (0)

Would you kindly repeat that for `CC(=NCc1cccc(Cl)c1)c1nc(-c2ccco2)oc1O` ?
false (0)

Would you kindly repeat that for `CS(=O)(=O)Nc1ccc(-c2cnc3cccnn23)cc1` ?
true (1)

Would you kindly repeat that for `COc1ccc(NC(=O)c2ccccc2Cl)cc1NC(=O)CN1CCOCC1` ?
false (0)

Would you kindly repeat that for Cc1c(C(=O)NCC2COc3ccccc3O2)oc2ccc(S(=O)(=O)N3CCOCC3)cc12 (stereo not given) ?
false (0)

Would you kindly repeat that for CCc1ccc(NC(=O)C2CCN(S(=O)(=O)c3ccc4c(c3)CC(C)N4C(C)=O)CC2)cc1 (stereo not given) ?
false (0)

Would you kindly repeat that for `CC(=NNC(=S)Nc1ccc(C)cc1)c1ccccn1` ?
true (1)

Would you kindly repeat that for Nc1ccn(C2OC(CO)C(O)C2O)c(=O)n1 (stereo not given) ?
false (0)
